# system_under_test: RIPK1 (Homo sapiens (Human), UniProt Q13546)
# Sequence (Q13546 1-327): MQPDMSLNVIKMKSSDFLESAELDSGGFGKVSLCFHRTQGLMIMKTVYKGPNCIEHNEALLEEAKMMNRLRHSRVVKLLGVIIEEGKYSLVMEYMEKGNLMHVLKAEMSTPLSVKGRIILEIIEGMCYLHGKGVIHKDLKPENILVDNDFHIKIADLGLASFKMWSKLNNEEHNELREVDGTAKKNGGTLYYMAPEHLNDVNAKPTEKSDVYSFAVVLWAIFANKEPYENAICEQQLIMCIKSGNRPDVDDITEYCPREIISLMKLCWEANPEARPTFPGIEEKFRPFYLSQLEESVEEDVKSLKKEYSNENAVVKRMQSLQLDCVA
# assay_explanation: ADP-Glo kinase assay (RIPK1 activity, conversion of ATP to ADP)
# Type: biochemical
# conditions_used: 5 nM RIPK1, 50 μM ATP, 6 h reaction; read-out: RIPK1 Enzyme Avg IC50
measurement_label: IC50 (nM)

Request: // fetch IC50 given entry N#Cc1cccc(OCC23CC(C(=O)N4CC(F)CC4c4cccc(F)c4)(C2)C3)n1 (stereo not shown)
Response: 109

Request: Give recorded IC50. O=C(N1N=CCC1c1cc(F)cc(F)c1)C12CC(Cn3cc(CO)nn3)(C1)C2 (stereo not shown)
Response: 5460

Request: Return IC50 (reported value) for this compound: O=C(N1N=CCC1c1cc(F)cc(F)c1)C12CC(Cn3cc4c(F)cccc4n3)(C1)C2 (stereo not shown)
Response: 70

Request: Read the entry COCC12CC(C(=O)N3CC(F)CC3c3cccc(F)c3)(C1)C2 (stereo not shown) and write its reported IC50.
Response: 4630

Request: Input Cc1c2ccccc2nn1CC12CC(C(=O)N3N=CCC3c3cc(F)cc(F)c3)(C1)C2 (stereo not shown) , output reported IC50.
Response: 98

Request: Please report the measured IC50 for O=C(N1N=CCC1c1cc(F)cc(F)c1)C12CC(Cn3cc(-c4cnccn4)cn3)(C1)C2 (stereo not shown)
Response: 73

P = O=C(N1N=CCC1c1cc(F)cc(F)c1)C12CC(Cn3ccn4nccc34)(C1)C2 (stereo not shown)
Q = N#Cc1cn(CC23CC(C(=O)N4N=CCC4c4cc(F)cc(F)c4)(C2)C3)cn1 (stereo not shown)
R = Cc1cnc(C2CC=NN2C(=O)C23CC(Cn4cc(C#N)cn4)(C2)C3)cn1 (stereo not shown)
S = Cc1ccc(C2CC=NN2C(=O)C23CC(Cn4cc(C#N)cn4)(C2)C3)nc1 (stereo not shown)
Request: Ranking field: IC50; order: falling. Sort the labels as requested; that list is your answer.
Response: S, R, Q, P
(S: 670 nM, R: 375 nM, Q: 156 nM, P: 24 nM)

P = N#Cc1ccc2nn(CC34CC(C(=O)N5N=CCC5c5cc(F)cc(F)c5)(C3)C4)cc2n1 (stereo not shown)
Q = N#Cc1ccc2c(cnn2CC23CC(C(=O)N4CCC4c4ccc(Cl)cc4)(C2)C3)c1 (stereo not shown)
Request: Which is greater in IC50, the first item P or the second item Q ? Indicate which entry you chose by stating its label.
Response: P

A = O=C(N1CC(F)CC1c1cccc(F)c1)C12CC(COc3cccc4nncn34)(C1)C2 (stereo not shown)
B = N#Cc1cncc(OCC23CC(C(=O)N4CC(F)CC4c4cccc(F)c4)(C2)C3)n1 (stereo not shown)
C = N#Cc1cc(OCC23CC(C(=O)N4N=CCC4c4cncc(F)c4)(C2)C3)ncn1 (stereo not shown)
Request: Arrange items by their IC50 values in increasing order. Rank the items, then write their labels in that order.
Response: C, B, A
(C: 49 nM, B: 162 nM, A: 2660 nM)
